Source: patent EP0115142B1

Molecular target: alpha2 binding site in human platelets (Homo sapiens)
Sequence (P08913 1-465): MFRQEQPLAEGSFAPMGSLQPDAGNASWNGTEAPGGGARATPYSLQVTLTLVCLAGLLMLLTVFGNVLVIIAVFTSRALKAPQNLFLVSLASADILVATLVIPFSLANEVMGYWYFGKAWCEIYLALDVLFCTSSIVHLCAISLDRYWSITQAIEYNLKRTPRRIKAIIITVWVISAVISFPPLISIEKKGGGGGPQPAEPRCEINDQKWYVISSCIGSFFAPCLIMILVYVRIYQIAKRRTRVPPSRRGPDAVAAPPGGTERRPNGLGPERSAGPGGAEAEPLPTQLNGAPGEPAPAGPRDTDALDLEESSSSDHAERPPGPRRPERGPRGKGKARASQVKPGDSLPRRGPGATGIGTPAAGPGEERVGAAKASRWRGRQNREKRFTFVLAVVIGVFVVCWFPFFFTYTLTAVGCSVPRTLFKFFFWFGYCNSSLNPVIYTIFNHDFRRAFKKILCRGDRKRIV
Assay: Tritiated yohimbine binding assay
measuredProperty: pIC50
# reply with the number alone; pIC50 is -log10 of concentration in mol/L

Solved cases below.
[
  {
    "compound": "Fc1cccc2c1CCC(C1=NCCN1)O2 (stereo not drawn) [Example 2e, 2-(2-Imidazolin-2-yl)-5-fluorochroman]",
    "pIC50": 8.42
  },
  {
    "compound": "Fc1cccc2c1OC(C1=NCCN1)CC2 (stereo not drawn) [Example 3e, 2-(2-Imidazolin-2-yl)-8-fluorochroman]",
    "pIC50": 7.27
  }
]

query: Item c1ccc2c(c1)CCC(C1=NCCN1)O2 (stereo not drawn) [Example 1c, 2-(2-Imidazolin-2-yl)chroman] has what recorded pIC50?
result: 7.47
